nuclei count listing for selected compounds.
- Test details: endothelial E-selectin expression blockers – imaging, HUVEC, immunofluorescence, MLSMR starter and 10KST1 sets, primary screen (AID 487);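 further: 100% = median nuclei count of all wells on the same plate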
- Measurement setup: HUVEC TNFalpha-induced E-selectin immunofluorescence imaging, at 2 µM; measured here: cell number, toxicity

Field: example entries. Status: answers known.
CCS(=O)(=O)c1nc2ccccc2n1Cc1ccccc1Cl :: 109%
O=C(Cn1nc(Cc2ccncc2)c2ccccc2c1=O)N1CCN(C(=O)c2ccco2)CC1 :: 112%
CCOc1ccccc1NC(=O)CN(c1ccc(C)cc1)S(=O)(=O)c1c(C)noc1C :: 64.7%

Kindly review the next compound as well.
Value of nuclei count reported for the compound `CCOCCCNC(=O)C1CCN(S(=O)(=O)N(CC(C)C)CC(C)C)CC1` is 100%
